Here, compounds appear alongside IC50 reported for HPK1 (Homo sapiens (Human)) in the literature.

A selection of reference data follows.
* COc1cc2c(cc1Nc1ncc(C(N)=O)c(Nc3ccccc3Br)n1)CN(S(=O)(=O)C1CC1)CC2 | 845 nM
* Cn1ccc2c(-c3ncc(Nc4cccc(N5C[C@@H](N)CC5=O)n4)c4c3CNC4=O)ccnc21 | < 100 nM
* C/C(Nc1ccc(N2CCNCC2)cc1)=C1/C(=O)Nc2cnc(-c3cnccc3C)cc21 | < 50 nM
* CN1CCN(c2ccc3nc(-c4c(NCc5ccccn5)c5cscc5[nH]c4=O)[nH]c3c2)CC1 | ≤ 50 nM
* O=C(c1ccc(-c2cc(Nc3ccc(N4CCC(O)CC4)cn3)c3c(=O)[nH]ccc3n2)c(F)c1)N1CCC(O)CC1 | ≤ 100 nM
* C[C@@H]1COC[C@@H](C)N1c1ccc(Nc2cc(-c3ccc(NC(=O)C4CCCCC4)cc3F)nc3cc[nH]c(=O)c23)nc1 | ≤ 100 nM
* O=C1NCCN1c1cccc(-c2cnc3[nH]cc(C4CC4)c3c2Cl)c1 | 27.6 nM
* COc1cc2c(cc1Nc1ncc(C(N)=O)c(Nc3cccc4c3CCNC4=O)n1)CN(C)CC2 | 0.13 nM
* Cc1ccc(Nc2ncc3c(n2)N2CCN=C2C(c2cc(NC(=O)c4cc(C(F)(F)F)ccn4)ccc2C)=C3)c(C)n1 | < 100 nM
* COc1cc2c(cc1Nc1ncc3ccc(NCc4cc(C)n(C)n4)cc3n1)CN(C)CC2 | 290 nM

Parameter requested: IC50. Apply to each item below.
1. Cc1cccc(F)c1-n1nc2c(-c3cnn(C4CCN(C)CC4)c3)n[nH]c2cc1=O
2. O=c1[nH]ccc2nc(-c3c(F)cccc3F)cc(Nc3ccc(S(=O)(=O)N4CCCCC4)cn3)c12

1: 500 to 2000 nM; 2: 100 to 1000 nM
